Hello, the source for this data is ChEMBL document CHEMBL3608294, in case you need it.

Target Or System: ATP-dependent translocase ABCB1 (Homo sapiens, UniProt P08183)
Sequence (P08183 whole entry): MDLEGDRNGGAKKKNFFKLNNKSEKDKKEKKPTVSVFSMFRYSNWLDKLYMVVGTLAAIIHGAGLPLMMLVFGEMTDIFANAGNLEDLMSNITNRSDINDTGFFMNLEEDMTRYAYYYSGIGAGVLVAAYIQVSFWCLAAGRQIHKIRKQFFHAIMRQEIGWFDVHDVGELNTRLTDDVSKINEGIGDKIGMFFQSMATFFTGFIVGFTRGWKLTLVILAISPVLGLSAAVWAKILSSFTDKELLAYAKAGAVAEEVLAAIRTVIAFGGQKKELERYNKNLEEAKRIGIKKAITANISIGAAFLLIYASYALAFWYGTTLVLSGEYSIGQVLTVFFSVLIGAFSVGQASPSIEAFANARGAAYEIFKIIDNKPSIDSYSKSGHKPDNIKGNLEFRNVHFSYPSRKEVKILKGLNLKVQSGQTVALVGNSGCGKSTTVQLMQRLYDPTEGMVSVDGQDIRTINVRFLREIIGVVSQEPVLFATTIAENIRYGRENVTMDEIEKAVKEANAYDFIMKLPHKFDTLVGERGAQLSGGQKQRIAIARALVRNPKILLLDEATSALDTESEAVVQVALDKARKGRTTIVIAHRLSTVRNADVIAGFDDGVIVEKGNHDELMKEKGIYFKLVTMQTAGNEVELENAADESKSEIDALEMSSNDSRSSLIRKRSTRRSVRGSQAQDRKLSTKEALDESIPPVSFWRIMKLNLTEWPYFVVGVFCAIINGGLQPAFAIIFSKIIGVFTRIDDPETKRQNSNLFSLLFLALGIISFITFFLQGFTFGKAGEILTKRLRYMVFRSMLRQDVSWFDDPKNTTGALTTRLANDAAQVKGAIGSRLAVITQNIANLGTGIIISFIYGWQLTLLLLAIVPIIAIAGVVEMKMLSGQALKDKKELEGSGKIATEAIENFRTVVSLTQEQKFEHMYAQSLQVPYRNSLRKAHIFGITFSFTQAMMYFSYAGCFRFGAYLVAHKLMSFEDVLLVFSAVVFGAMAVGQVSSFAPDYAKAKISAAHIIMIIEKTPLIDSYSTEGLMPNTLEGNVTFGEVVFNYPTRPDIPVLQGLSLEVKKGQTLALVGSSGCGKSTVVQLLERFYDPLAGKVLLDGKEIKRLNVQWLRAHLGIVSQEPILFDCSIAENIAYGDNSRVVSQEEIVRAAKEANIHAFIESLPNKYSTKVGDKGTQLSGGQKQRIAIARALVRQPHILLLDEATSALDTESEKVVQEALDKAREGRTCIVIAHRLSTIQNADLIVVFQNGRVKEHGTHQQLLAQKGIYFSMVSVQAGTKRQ
Measurement Description: Inhibition of human ABCB1 expressed in mouse L5178Y cells assessed as fluorescence activity ratio at 20 uM incubated for 10 mins by flow cytometry based rhodamine-123 accumulation assay (reference value: 0.78)
Format: cell-based
Property Label: Ratio
# output: bare number, no unit

Inquiry: So what's the measured Ratio for this one? CCN(CC)C(=O)O[C@@H]1[C@@H]2[C@@H](OC(=O)N(CC)CC)[C@]3(CC[C@H]4[C@@H](/C=C(\C)C(=O)[C@@]2(O)C[C@@H]1C)C4(C)C)CO3
Reply text: 10.62

Inquiry: Same for COc1cccc(C(=O)O[C@@H]2[C@@H]3[C@@H](OC(=O)c4cccc(OC)c4)[C@]4(CC[C@H]5[C@@H](/C=C(\C)C(=O)[C@@]3(O)C[C@@H]2C)C5(C)C)CO4)c1
Reply text: 63.13

Inquiry: Queued: CC(=O)O[C@@H]1[C@@H]2[C@@H](OC(C)=O)[C@](C)(OC(C)=O)CC[C@H]3[C@@H](/C=C(\C)[C@H](OC(C)=O)[C@@]2(OC(C)=O)C[C@@H]1C)C3(C)C
Reply text: 51.34

----------
Target Or System: ATP-dependent translocase ABCB1 (Homo sapiens, UniProt P08183)
Measurement Description: Inhibition of ABCB1 in multidrug resistant human COLO320 cells assessed as fluorescence activity ratio at 2 uM incubated for 10 mins by flow cytometry based rhodamine-123 accumulation assay (reference value: 0.62)
Response field label takes Fulfilled when Ratio is strictly below 8 and Not fulfilled in all other cases.

Inquiry: Consider the compound CO[C@H]1[C@@H]2[C@H](CC[C@]3(COC(=O)c4ccc(C(F)(F)F)cc4)O[C@@H]3[C@H]3[C@@H](OC(=O)c4ccc(C(F)(F)F)cc4)[C@@H](C)C[C@]3(O)C(=O)[C@@H]1C)C2(C)C . Is its Ratio strictly less than 8?
Reply text: Not fulfilled

Inquiry: Then C/C1=C\[C@@H]2[C@H](CC[C@]3(CO3)[C@H](OC(=O)c3ccc(C(F)(F)F)cc3)[C@H]3[C@@H](OC(=O)c4ccc(C(F)(F)F)cc4)[C@@H](C)C[C@]3(O)C1=O)C2(C)C ?
Reply text: Fulfilled

Inquiry: // same read-out, input: C/C1=C\[C@@H]2[C@H](CC[C@]3(CO3)[C@H](OC(=O)c3cccs3)[C@H]3[C@@H](OC(=O)c4cccs4)[C@@H](C)C[C@]3(O)C1=O)C2(C)C
Reply text: Not fulfilled

Inquiry: Similarly, C/C1=C\[C@@H]2[C@H](CC[C@]3(CO3)[C@H](OC(=O)c3ccc4ccccc4c3)[C@H]3[C@@H](OC(=O)c4ccc5ccccc5c4)[C@@H](C)C[C@]3(O)C1=O)C2(C)C ?
Reply text: Fulfilled

Inquiry: Request: COc1cccc(C(=O)O[C@@H]2[C@@H]3[C@@H](OC(=O)c4cccc(OC)c4)[C@]4(CC[C@H]5[C@@H](/C=C(\C)C(=O)[C@@]3(O)C[C@@H]2C)C5(C)C)CO4)c1
Reply text: Not fulfilled

----------
Can you tell me Ratio for the items I'm about to list?
Target Or System: ATP-dependent translocase ABCB1 (Homo sapiens)
Measurement Description: Inhibition of ABCB1 in multidrug resistant human COLO320 cells assessed as fluorescence activity ratio at 2 uM incubated for 10 mins by flow cytometry based rhodamine-123 accumulation assay (reference value: 0.62)
Respond using a number only.

Inquiry: Given the entry CO[C@H]1[C@@H]2[C@H](CC[C@]3(COC(=O)c4ccccc4)O[C@@H]3[C@H]3[C@@H](OC(=O)c4ccccc4)[C@@H](C)C[C@]3(O)C(=O)[C@@H]1C)C2(C)C , report its measured Ratio.
Reply text: 9.85

Inquiry: Input CCC(=O)OC[C@]1(O)CC[C@H]2[C@@H](/C=C(\C)C(=O)[C@@]3(O)C[C@H](C)[C@H](OC(=O)CC)[C@@H]3[C@H]1O)C2(C)C
Reply text: 1.1

Inquiry: How about this compound: C/C1=C\[C@@H]2[C@H](CC[C@@](C)(O)[C@H](O)[C@H]3[C@@H](O)[C@@H](C)C[C@]3(O)[C@H]1O)C2(C)C
Reply text: 1

Inquiry: For C/C1=C\[C@@H]2[C@H](CC[C@]3(CO3)[C@H](OC(=O)c3ccco3)[C@H]3[C@@H](OC(=O)c4ccco4)[C@@H](C)C[C@]3(O)C1=O)C2(C)C then?
Reply text: 1.67

Inquiry: Please answer likewise for C/C1=C\[C@@H]2[C@H](CC[C@]3(CO3)[C@H](OC(=O)c3cccc(C)c3)[C@H]3[C@@H](OC(=O)c4cccc(C)c4)[C@@H](C)C[C@]3(O)C1=O)C2(C)C
Reply text: 5.59

Inquiry: Next entry: CO[C@H]1[C@@H]2[C@H](CC[C@]3(CO)O[C@@H]3[C@H]3[C@@H](O)[C@@H](C)C[C@]3(O)C(=O)[C@@H]1C)C2(C)C
Reply text: 1.1

Inquiry: Further, for CCN(CC)C(=O)O[C@@H]1[C@@H]2[C@@H](OC(=O)N(CC)CC)[C@]3(CC[C@H]4[C@@H](/C=C(\C)C(=O)[C@@]2(O)C[C@@H]1C)C4(C)C)CO3 ?
Reply text: 1.54

Inquiry: Can you handle C/C1=C\[C@@H]2[C@H](CC[C@]3(CO3)[C@H](OC(=O)N(C)C)[C@H]3[C@@H](O)[C@@H](C)C[C@]3(O)C1=O)C2(C)C next?
Reply text: 1.03

Inquiry: Next up: CO[C@H]1[C@@H]2[C@H](CC[C@]3(COC(C)=O)O[C@@H]3[C@H]3[C@@H](OC(C)=O)[C@@H](C)C[C@]3(O)C(=O)[C@@H]1C)C2(C)C
Reply text: 1.1

Inquiry: Likewise for C/C1=C\[C@@H]2[C@H](CC[C@]3(CO3)[C@H](OC(=O)c3ccc(-c4ccccc4)cc3)[C@H]3[C@@H](OC(=O)c4ccc(-c5ccccc5)cc4)[C@@H](C)C[C@]3(O)C1=O)C2(C)C ?
Reply text: 2.7

Inquiry: Lookup C/C1=C\[C@@H]2[C@H](CC[C@]3(CO3)[C@H](O)[C@H]3[C@@H](O)[C@@H](C)C[C@]3(O)C1=O)C2(C)C
Reply text: 1.02
